# System: CEM (human lymphoblastoid leukemia)
# test_name: In vitro cytotoxic activity, Calcein AM
# Format: cell-based
# applied_conditions: Homo sapiens, 72 h, three days
# From the text: We have been using the following cell lines: HELA (human cervical carcinoma), MCF7 (human breast adenocarcinoma), NIH 3T3 (mouse fibroblasts), HOS (human osteogenic sarcoma), HL 60 (human promyelocytic leukemia), G 361 (human malignant melanoma), K562 (human erythroleukemia), CEM (human lymphoblastoid leukemia). […] Fluorescence of viable cells was quantified employing Fluoroskan Ascent (Microsystems).
outcome_measure: log10 of GI50 (log10 of the value in µM)
Each number you see is log10 of GI50, and the unit inside the log is µM.

{"compound": "CC(=O)Oc1ccccc1CNc1nc(N[C@@H](CO)C(C)C)nc2c(C(C)C)n[nH]c12", "test_value": 0.94}

Problem: Which log10 of GI50 is listed for Cc1n[nH]c2c(Nc3ccccc3)nc(NCCO)nc12 [2-hydroxyethylamino / anilino / methyl] ?
Result: 1.01

Problem: What would you report for CC(C)c1n[nH]c2c(NCc3ccccc3)nc(NCCCN)nc12 ?
Result: 1.38

###

# System: normal human lymphocytes
# test_name: Immunosuppressive activity, 3H-thymidine incorporation in concanavalin A activated lymphocytes
# Format: cell-based
# applied_conditions: Lymphocyte, 72 hours, [3H]-TdR, read-out: Human lymphocytes ED50
outcome_measure: pEC50
Field pEC50 (float): negative decimal logarithm of the concentration in molar.

// below: answered molecules
{"molecule": "CC(C)c1n[nH]c2c(Nc3cccc(Cl)c3)nc(NC3CCCCC3N)nc12 (centres unmarked)", "outcome_measure": "pEC50", "test_value": 6.70}
{"molecule": "Cc1n[nH]c2c(NCc3ccccc3)nc(NCCO)nc12", "outcome_measure": "pEC50", "test_value": 4.47}
{"molecule": "CC(C)c1n[nH]c2c(NCc3ccccc3)nc(NCCO)nc12", "outcome_measure": "pEC50", "test_value": 4.57}
{"molecule": "CC(C)c1n[nH]c2c(NCc3ccccc3)nc(NCCN)nc12", "outcome_measure": "pEC50", "test_value": 4.94}
{"molecule": "CC(C)c1n[nH]c2c(NCc3ccccc3)nc(N[C@@H](CO)C(C)C)nc12", "outcome_measure": "pEC50", "test_value": 5.19}

Problem: What value of measured pEC50 is listed for CC(C)c1n[nH]c2c(Nc3cccc(Cl)c3)nc(NCCO)nc12 ?
Result: 4.77

Problem: One more molecule: CC[C@H](CO)Nc1nc(NCc2ccccc2)c2n[nH]c(C(C)C)c2n1
Result: 5.35

Problem: Record: Cc1n[nH]c2c(NCc3ccccc3)nc(NCCCN)nc12
Result: 4.91

Problem: Further, for CC(C)c1n[nH]c2c(NCc3ccccc3)nc(NCCCO)nc12 ?
Result: 4.68

Problem: Quick one: CC(C)c1n[nH]c2c(Nc3cccc(Cl)c3)nc(NCCCN)nc12
Result: 5.35

Problem: Thanks! And Cc1n[nH]c2c(NCc3ccccc3)nc(NCCCO)nc12 ?
Result: 4.55

Problem: Repeat with Cc1n[nH]c2c(NCc3ccccc3)nc(N[C@@H](CO)C(C)C)nc12
Result: 5.19

###

Recorded pIC50 values for a group of molecules are listed next.
# assayed_system: UniProt A0AAV1B7B8
# Sequence (A0AAV1B7B8 1-394): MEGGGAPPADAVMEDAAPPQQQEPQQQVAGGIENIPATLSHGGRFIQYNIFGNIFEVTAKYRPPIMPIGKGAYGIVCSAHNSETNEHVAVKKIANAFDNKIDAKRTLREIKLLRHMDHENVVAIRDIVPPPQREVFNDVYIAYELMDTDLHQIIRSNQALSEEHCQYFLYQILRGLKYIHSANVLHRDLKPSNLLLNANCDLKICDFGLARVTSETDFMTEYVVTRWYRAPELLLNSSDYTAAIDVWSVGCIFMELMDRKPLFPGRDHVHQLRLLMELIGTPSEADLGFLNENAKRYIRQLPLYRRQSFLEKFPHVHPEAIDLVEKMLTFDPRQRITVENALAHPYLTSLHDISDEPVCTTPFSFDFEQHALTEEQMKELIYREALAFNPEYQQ
Lab note: report pIC50 as minus log10 of the concentration in molar units, number only.

{"molecule": "CC[C@H](CO)Nc1nc(NCc2cc(O)c(Cl)cc2O)c2[nH]nc(C(C)C)c2n1", "pIC50": 7.82}

Problem: Form field: reported pIC50 of CC(C)c1n[nH]c2c(NCc3ccccc3)nc(NC3CCCCC3N)nc12 (stereo not shown)
Result: 7.70

Problem: Item: CC(C)c1n[nH]c2c(Nc3cc(N)cc(Cl)c3)nc(N[C@@H](CO)C(C)C)nc12
Result: 7.82

###

# assayed_system: IκB-α kinase
# test_name: IκB-α kinase inhibition, in vitro kinase assay
Recorded IC50 values for a group of molecules are listed next.
Numbers only here, please. The scale is nM.

Worked examples follow.
{"molecule": "Cc1n[nH]c2c(NCc3ccc(Cl)c(O)c3O)nc(NCCO)nc12", "assayed_system": "IκB-α kinase", "test_value": 21}
{"molecule": "CC[C@H](CO)Nc1nc(NCc2cccc(OC(C)=O)c2)c2[nH]nc(C(C)C)c2n1", "assayed_system": "IκB-α kinase", "test_value": 400}
{"molecule": "CC[C@H](CO)Nc1nc(NCc2c(O)cc(OC)cc2O)c2[nH]nc(C(C)C)c2n1", "assayed_system": "IκB-α kinase", "test_value": 3}
{"molecule": "COc1cc(O)c(CNc2nc(N[C@@H](CO)C(C)C)nc3c(C(C)C)n[nH]c23)c(O)c1", "assayed_system": "IκB-α kinase", "test_value": 1.6}
{"molecule": "CC(C)c1n[nH]c2c(NCc3ccccc3)nc(NCCO)nc12", "assayed_system": "IκB-α kinase", "test_value": 2300}
{"molecule": "Cc1n[nH]c2c(Nc3ccc(Cl)c(N)c3)nc(NCCO)nc12", "assayed_system": "IκB-α kinase", "test_value": 23}
{"molecule": "CC(C)c1n[nH]c2c(Nc3cccc(Cl)c3)nc(N(CCO)CCO)nc12", "assayed_system": "IκB-α kinase", "test_value": 190}
{"molecule": "CC(C)c1n[nH]c2c(NCc3ccc(O)c(O)c3)nc(N[C@@H](CO)C(C)C)nc12", "assayed_system": "IκB-α kinase", "test_value": 310}
{"molecule": "Cc1n[nH]c2c(Nc3ccccc3)nc(NCCO)nc12 [2-hydroxyethylamino; anilino; methyl]", "assayed_system": "IκB-α kinase", "test_value": 210}

# next molecule below
Problem: Could you share which IC50 value was measured for CC(C)c1n[nH]c2c(Nc3cccc(Cl)c3)nc(NCCCO)nc12 ?
Result: 200

###

This section presents compounds with their documented GI50 values.
# Tested on: CEM (human lymphoblastoid leukemia)
# test_name: In vitro cytotoxic activity, Calcein AM
# Type: cell-based
# applied_conditions: Homo sapiens, 72 h, three days
Report the value in µM with no unit label.

{"smiles_repr": "Cc1n[nH]c2c(Nc3ccc(O)c(C(=O)O)c3)nc(NCCO)nc12", "unit_of_measurement": "µM", "GI50": 12.4}
{"smiles_repr": "CC[C@H](CO)Nc1nc(NCc2ccc(OC)c(O)c2O)c2[nH]nc(C(C)C)c2n1", "unit_of_measurement": "µM", "GI50": 4.7}
{"smiles_repr": "CC(C)c1n[nH]c2c(NCc3ccc(Cl)c(N)c3N)nc(N[C@@H](CO)C(C)C)nc12", "unit_of_measurement": "µM", "GI50": 8.2}

Problem: # input compound: CC(C)c1n[nH]c2c(Nc3cccc(Cl)c3)nc(NCCN)nc12 ; wanted: its GI50
Result: 16

Problem: Now consider Cc1n[nH]c2c(NCc3ccccc3)nc(NCCO)nc12 .
Result: 45

###

# assayed_system: IκB-α kinase
# test_name: IκB-α kinase inhibition, in vitro kinase assay
// reported pIC50 for each item listed
Recall that pIC50 is obtained by taking minus log10 of the concentration measured in molar.

{"molecule": "Cc1n[nH]c2c(NCc3ccccc3)nc(NCCN)nc12", "pIC50": 5.30}
{"molecule": "CC(=O)c1ccccc1CNc1nc(N[C@@H](CO)C(C)C)nc2c(C(C)C)n[nH]c12", "pIC50": 7.30}

Now look at this entry.
Problem: Query (molecule): CC(C)c1n[nH]c2c(NCc3ccccc3)nc(N(CCO)CCO)nc12 ; field requested: pIC50
Result: 5.96

###

# Tested on: normal human lymphocytes
# test_name: Immunosuppressive activity, 3H-thymidine incorporation in concanavalin A activated lymphocytes
# Assay type: cell-based
# applied_conditions: Lymphocyte, 72 hours, [3H]-TdR, read-out: Human lymphocytes ED50
# Description: Human heparinized peripheral blood was obtained from healthy volunteers by cubital vein punction. The blood was diluted in PBS (1:3) and mononuclear cells were separated by centrifugation in Ficoll-Hypaque density gradient (Pharmacia, 1.077 g/ml) at 2200 rpm for 30 minutes. […] The cells were diluted at target density of 1.100.000 cells/ml were added by pipette (180 μl) into 96/well microtiter plates. […] Usually, test compound was evaluated at six 4-fold dilutions. […]
outcome_measure: EC50 (µM)
The figure you give is taken to be in µM; do not add the unit.

Reference set (5 entries):
{"compound": "CC[C@H](CO)Nc1nc(Nc2cccc(Cl)c2)c2[nH]nc(C(C)C)c2n1", "outcome_measure": "EC50", "unit_of_measurement": "µM", "test_value": 1.8}
{"compound": "CC(C)c1n[nH]c2c(Nc3cccc(Cl)c3)nc(NCCCO)nc12", "outcome_measure": "EC50", "unit_of_measurement": "µM", "test_value": 12}
{"compound": "Cc1n[nH]c2c(NCc3ccccc3)nc(NCCN)nc12", "outcome_measure": "EC50", "unit_of_measurement": "µM", "test_value": 14.7}
{"compound": "CC(C)c1n[nH]c2c(Nc3cccc(Cl)c3)nc(NCCN)nc12", "outcome_measure": "EC50", "unit_of_measurement": "µM", "test_value": 6.7}
{"compound": "CC(C)c1n[nH]c2c(NCc3ccccc3)nc(NC3CCC(N)CC3)nc12 (stereo not shown)", "outcome_measure": "EC50", "unit_of_measurement": "µM", "test_value": 1.1}

Problem: Need EC50, item Cc1n[nH]c2c(NCc3ccccc3)nc(NC3CCCCC3N)nc12 (stereo not shown)
Result: 1.2

Problem: Next compound up: CC(C)c1n[nH]c2c(Nc3cccc(Cl)c3)nc(NC3CCC(N)CC3)nc12 (stereo not shown)
Result: 0.5
